Tested on: BT-549 breast
Experiment: NCI-60 one-dose screen, 48 h (100 = growth as untreated, 0 = no growth, -100 = all killed)
Settings: 10 µM unless noted
The panel holds about 83,000 compounds, 20% with a hit somewhere; the sample as a whole holds those more often.
measurement-kind: growth (%)
Numbers only, in %.

Below, each entry is followed by its recorded growth result.
CCC1=C(c2ccc(OC)cc2)C(C)(C)Oc2c1ccc(O)c2CN1CCCC1	40.9
O=C(CSc1nnc(Nc2ccccc2)s1)NCCc1ccc(F)cc1	109
Cn1cc(-c2csc(-c3c[nH]c4ncccc34)n2)c2cc(Br)cnc21	45.5
COc1cc(OC)c2sc(-c3ccc(-n4cncc4-c4ccc(N)cc4)cc3)nc2c1	82.4

Could you report growth for every entry in the following list?
1. CN1C(=O)/C(=C/c2nc(-c3cccc(F)c3)n3ccccc23)c2ccccc21
2. C[N+]1(CCC[N+]2(C)C[C@@H]3[C@H](C2)[C@@H]2C=C[C@H]3C2)CCOCC1 (stereo partly specified)
3. CN(C)c1ccc(/C=C\c2ccnc3ccccc23)cc1

Result string:
1. 90.9
2. 103
3. -0.99

Could you report growth for every entry in the following list?
1. O=C(Nc1ccccc1Cl)c1cnc2ccc(C3CCNCC3)cn12
2. Clc1ccc(-c2nc(-c3cccs3)no2)c(Cl)c1
3. c1cncc(CNc2ccccc2-c2nnc(Nc3ccc4c(c3)OCO4)o2)c1

Result string:
[97.8, 83, 39.2]

Could you report growth for every entry in the following list?
1. CN(C)c1nc(N)nc(Cn2c(-c3nonc3N)nc3ccccc32)n1
2. O=C1OC(c2ccc(-c3ccccc3)cc2)=C/C1=C/c1cccs1
3. Cc1c(C(N)=O)sc2c1c(=O)n(Cc1ccccc1)c1nnc(S(=O)(=O)CC(=O)Nc3ccc(Cl)cc3)n21
4. Cc1nn(-c2ccccc2)c2nc3c(nc12)C(=O)CCC3

Result string:
1: 91.8; 2: 92; 3: 75.7; 4: 90.9

Could you report growth for every entry in the following list?
1. Cc1cc2c(cc1[N+](=O)[O-])NC(CNC(C)C)CC2 (stereo unspecified)
2. COC1=CC(c2ccc[nH]2)=N/C1=C\c1[nH]c(C)c(C(=O)CCC(=O)Oc2ccc3c(c2)CCC2C3CC[C@]3(C)C(=O)CC[C@@H]23)c1C (stereo partly specified)
3. COc1ccc(CCN2CCCN3C2=Nc2ccccc2S3(=O)=O)cc1
4. CSc1nnc(C2=CC(=O)c3ccccc3C2=O)n1-c1ccccc1
5. COc1ccc(-c2c(N)noc2-c2cc(OC)c3c(c2)OCCO3)cc1

Result string:
[102, 70.2, 50.2, 92.9, 20.4]

Could you report growth for every entry in the following list?
1. Clc1ccc(-n2cnc3c(Cl)ncnc32)cc1Cl
2. Cc1cc(NC(=O)c2ccc(N)cc2)ccc1N=Nc1ccc2c(O)c(N=Nc3ccc(Cl)c(S(=O)(=O)O)c3)c(S(=O)(=O)O)cc2c1

Result string:
1: 90.3; 2: 102

###

System: NCI-H522 lung
Assay: NCI-60 one-dose screen, 48 h (100 = growth as untreated, 0 = no growth, -100 = all killed)
Conditions: 10 µM unless noted
Method: Growth inhibition of the NCI-H522 human Non-Small Cell Lung tumor cell line is measured as a screen for anti-cancer activity. Cells are grown in 96 well plates and exposed to the test compound for 48 hours. Compounds are tested at a single concentration, which is 10^-5 M for most compounds. The reported endpoint is percent growth (GI% or GIPRCNT), where numbers from 0 - 100% represent growth inhibition, and numbers from -100% - 0 represent cell death. […]
The panel holds about 83,000 compounds, 20% with a hit somewhere; the sample as a whole holds those more often.
Mark not met for growth values under 60%, and met for everything at or above.

Worked examples follow.
CC(=O)c1nc2ccccc2n1CCn1cc(CC(N)C(=O)O)c2ccccc21 (stereo not given)	met
O=C1Nc2ccccc2C12Nc1cc(Cl)ccc1S2 (stereo not given)	met

Query string: Threshold query (growth >= 60%) on COc1cc(/C=C/C(=O)Nc2ccc3c(c2)/C(=C\c2cccn2C)C(=O)N3)cc(OC)c1OC
Result string: not met

Query string: Threshold query (growth >= 60%) on CCOC(=O)c1c(C)nc(C)c(C(=O)OCC)c1-c1cccnc1
Result string: met

Query string: Threshold query (growth >= 60%) on NC(=O)c1ncn([C@@H]2O[C@H](CO)[C@@H](O)[C@H]2O)n1
Result string: met
